Values from ChEMBL document CHEMBL4480430

TARGET SYSTEM: Histone acetyltransferase p300/Hypoxia-inducible factor 1-alpha (Homo sapiens, UniProt Q09472+Q16665)
ASSAY REMARKS: Inhibition of HIF-1alpha/p300 protein-protein interaction in human cells after 2 hrs by immunoprecipitation assay
Format: cell-based
RECORDED METRIC: pIC50
Recall that pIC50 is obtained by taking minus log10 of the concentration measured in molar.

*Q* Give recorded pIC50. CN1C(=O)[C@]2(Cc3cn([C@]45C[C@@]67SS[C@@](CO)(C(=O)N6[C@H]4Nc4ccccc45)N(C)C7=O)c4ccccc34)SS[C@@]1(CO)C(=O)N2C
*A* 6.27

====

TARGET SYSTEM: Histone acetyltransferase p300 (Homo sapiens)
ASSAY REMARKS: Binding affinity to p300 (unknown origin) by fluorescence anisotrophy
RECORDED METRIC: pKd
Recall that pKd is obtained by taking minus log10 of the concentration measured in molar.

*Q* Give recorded pKd. H-QLTSYDCEVNA-OH
*A* 5.17

====

TARGET SYSTEM: Histone acetyltransferase p300 (Homo sapiens)
ASSAY REMARKS: Binding affinity to human GST-fused p300 CH1 domain (323 to 423 residues) under hypoxic condition by SPR assay
RECORDED METRIC: Kd (µM)
State just the number; it will be interpreted in µM.

[[record]]
chem_smiles = "CN1C(=O)[C@@]2(Cc3ccc(CCc4ccc(C[C@@]56SS[C@@](CO)(C(=O)N5C)N(C)C6=O)cc4)cc3)NC(=O)[C@]1(CO)SS2"
target_system = "Histone acetyltransferase p300 (Homo sapiens)"
value_observed = 3.62


Continue with the compound presented below.
*Q* Send back Histone acetyltransferase p300 (Homo sapiens) Kd of CN1C(=O)[C@@]2(Cc3ccc(C[C@]45SS[C@](CO)(C(=O)N4C)N(C)C5=O)cc3)SS[C@]1(CO)C(=O)N2C only.
*A* 0.75

====

TARGET SYSTEM: Histone acetyltransferase p300/Hypoxia-inducible factor 1-alpha (Homo sapiens, UniProt Q09472+Q16665)
ASSAY REMARKS: Inhibition of HIF-1alpha (unknown origin)/p300 (unknown origin) protein-protein interaction by fluorescence anisotropy
Type: protein-complex assay
RECORDED METRIC: pIC50
Recall that pIC50 is obtained by taking minus log10 of the concentration measured in molar.

*Q* Give recorded pIC50. H-QLTSYDCEVNAPIQGSRNLLQGEELLRALDQVN-OH
*A* 4.05

====

# pIC50 per record follows
TARGET SYSTEM: Histone acetyltransferase p300/Hypoxia-inducible factor 1-alpha (Homo sapiens, UniProt Q09472+Q16665)
ASSAY REMARKS: Inhibition of HIF-1alpha (unknown origin)/p300 (unknown origin) protein-protein interaction
Format: protein-complex assay
Recall that pIC50 is obtained by taking minus log10 of the concentration measured in molar.

[[record]]
molecule = "COc1ccc(S(=O)(=O)N(Cc2ccc(CN3CCOCC3)cc2)C2CCC2)cc1OC"
value_observed = 6.00

[[record]]
molecule = "CN1C(=O)[C@@]23C[C@]4([C@]56C[C@@]78SS[C@@](CO)(C(=O)N7[C@H]5Nc5ccccc56)N(C)C8=O)c5ccccc5N[C@@H]4N2C(=O)[C@]1(CO)SS3 [CHAETOCIN]"
value_observed = 4.90

[[record]]
molecule = "COc1ccc(S(=O)(=O)N(Cc2ccc3c(n2)C=CC(C)(C)O3)C2CCC2)cc1OC"
value_observed = 6.55


*Q* Give recorded pIC50. COc1ccc(S(=O)(=O)N(Cc2ccc(CN3CCOCC3)cc2)c2ccccc2)cc1OC
*A* 6.05

*Q* Give recorded pIC50. COc1ccc(S(=O)(=O)N(Cc2ccc3c(c2)C=CC(C)(C)O3)c2ccccc2)cc1OC
*A* 6.23

====

TARGET SYSTEM: Hypoxia-inducible factor 1-alpha (Homo sapiens, UniProt Q16665)
ASSAY REMARKS: Binding affinity to HIF-1alpha (unknown origin) PAS B domain assessed as incorporation at Cys255 residues by mass spectrometry
Parameters: concentration or dose not given beside the values
RECORDED METRIC: Activity

Here are 4 molecules together with their reported answers.
[[record]]
molecule = "COC(=O)/C=C1/OC(c2ccc(O)cc2)=CC1=O"
recorded_metric = "Activity"
value_observed = "> 50%"

[[record]]
molecule = "O=[N+]([O-])c1ccc2c(c1)S(=O)(=O)C=C2"
recorded_metric = "Activity"
value_observed = "> 50%"

[[record]]
molecule = "C=C1C(=O)OC2C1CCC(=C)C1CC(=O)C(=C)C12 (stereo not given)"
recorded_metric = "Activity"
value_observed = "> 50%"

[[record]]
molecule = "C=CC(=O)N1CCc2ccccc21"
recorded_metric = "Activity"
value_observed = "25%"


Continue with the molecule presented below.
*Q* Give recorded Activity. CC1=CC(O)(C#Cc2ccccc2)C=CC1=O (stereo not given)
*A* > 50%

====

TARGET SYSTEM: Hypoxia-inducible factor 1-alpha (Homo sapiens, UniProt Q16665)
ASSAY REMARKS: Binding affinity to His-tagged HIF-1alpha (1 to 350 residues) (unknown origin) PAS B domain expressed in Escherichia coli BL21(DE3) by ITC
RECORDED METRIC: pKd
Recall that pKd is obtained by taking minus log10 of the concentration measured in molar.

*Q* Give recorded pKd. CC(C)C[C@@H]1NC(=O)[C@H](CS)NC(=O)[C@H](Cc2ccc(O)cc2)NC(=O)[C@H](C(C)C)NC(=O)[C@H](Cc2ccccc2)NC(=O)[C@H](CC(C)C)NC1=O
*A* 6.91

====

TARGET SYSTEM: Histone acetyltransferase p300 (Homo sapiens)
ASSAY REMARKS: Binding affinity to p300 CH1 domain (unknown origin) by tryptophan fluorescence assay
RECORDED METRIC: pKd
Recall that pKd is obtained by taking minus log10 of the concentration measured in molar.

*Q* Send back Histone acetyltransferase p300 (Homo sapiens) pKd of CCCC[C@@H](C(=O)N1CCN([C@@H](CCC(N)=O)C(N)=O)C(=O)[C@@H]1C)N1CCN[C@@H](CC(C)C)C1=O only.
*A* 4.52

====

TARGET SYSTEM: Histone acetyltransferase p300/Hypoxia-inducible factor 1-alpha (Homo sapiens, UniProt Q09472+Q16665)
ASSAY REMARKS: Inhibition of human fluorescein-labeled HIF-1alpha (786 to 826 residues)/ human GST-fused p300 CH1 domain (323 to 423 residues) protein-protein interaction after 1 hr by fluorescence polarization assay
Format: protein-complex assay
RECORDED METRIC: IC50 (nM)
State just the number; it will be interpreted in nM.

*Q* Give recorded IC50. CN1C(=O)[C@@]2(Cc3ccc(C[C@]45SS[C@](CO)(C(=O)N4C)N(C)C5=O)cc3)SS[C@]1(CO)C(=O)N2C
*A* 1500

====

TARGET SYSTEM: Histone acetyltransferase p300/Hypoxia-inducible factor 1-alpha (Homo sapiens, UniProt Q09472+Q16665)
ASSAY REMARKS: Inhibition of fluorescein-labeled HIF-1alpha (786 to 826 residues) (unknown origin)/GST-fused p300 CH1 domain (323 to 423 residues) (unknown origin) protein-protein interaction after overnight incubation by time-resolved fluorescence assay
Format: protein-complex assay
RECORDED METRIC: pIC50
Recall that pIC50 is obtained by taking minus log10 of the concentration measured in molar.

*Q* Give recorded pIC50. COc1ccc([C@@]2(c3nc(N)[nH]c3-c3ccc(O)cc3)N=C3N=CC=C4c5ccccc5N=C2N43)cc1
*A* 3.56
